Listed here are molecules together with their documented Ki.
# test.system: hNTS1R (Homo sapiens, UniProt P30989)
# Construct: at hNTS1R expressing intact human HT-29 colon carcinoma cells; endogenous in cells; host or cells: HT-29 human colon carcinoma cells (intact)
# Sequence (P30989 whole entry): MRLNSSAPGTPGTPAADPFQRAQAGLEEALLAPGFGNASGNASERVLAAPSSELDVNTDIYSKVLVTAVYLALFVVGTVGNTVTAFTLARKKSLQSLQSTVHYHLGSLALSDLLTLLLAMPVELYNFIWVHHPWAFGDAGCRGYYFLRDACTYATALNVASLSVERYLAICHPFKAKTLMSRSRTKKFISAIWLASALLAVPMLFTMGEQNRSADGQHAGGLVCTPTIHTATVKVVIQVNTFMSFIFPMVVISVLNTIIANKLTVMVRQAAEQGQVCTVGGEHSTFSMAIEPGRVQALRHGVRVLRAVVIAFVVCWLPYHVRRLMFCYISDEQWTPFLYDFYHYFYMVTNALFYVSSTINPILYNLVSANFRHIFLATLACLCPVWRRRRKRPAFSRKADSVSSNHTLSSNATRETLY
# test.name: Radioligand competition binding with [^3H]UR-MK300 at intact HT-29 cells
# condition.label: [^3H]UR-MK300 (Kd = […], c = 1 nM), 23 °C, mean, read-out: Ki (converted)

molecule	unit.label	Ki
C#CCCCCNC(=O)NC(=N)NCCC[C@H](NC(=O)[C@@H](N)CCCNC(=N)N)C(=O)N1CCC[C@H]1C(=O)N[C@@H](Cc1ccc(O)cc1)C(=O)N[C@H](C(=O)N[C@@H](CC(C)C)C(=O)O)C(C)(C)C [Compound 8]	nM	9.4
C#CCCC(=O)NCCCCNC(=O)NC(=N)NCCC[C@H](NC)C(=O)N[C@@H](CCCNC(=N)N)C(=O)N1CCC[C@H]1C(=O)N[C@@H](Cc1ccc(O)cc1)C(=O)N[C@H](C(=O)N[C@@H](CC(C)C)C(=O)O)C(C)(C)C [Compound 19]	nM	7.7
CC(C)C[C@H](NC(=O)[C@@H](NC(=O)[C@H](Cc1ccc(O)cc1)NC(=O)[C@@H]1CCCN1C(=O)[C@H](CCCNC(=N)NC(=O)NCCCCc1cn([C@@H]2O[C@H](CF)[C@@H](O)[C@H](O)[C@H]2O)nn1)NC(=O)[C@@H](N)CCCNC(=N)N)C(C)(C)C)C(=O)O [Compound 12]	nM	5.8
CN[C@@H](CCCNC(=N)NC(=O)NCCCCNC(=O)CCc1cn([C@@H]2O[C@H](CF)[C@@H](O)[C@H](O)[C@H]2O)nn1)C(=O)N[C@@H](CCCNC(=N)N)C(=O)N1CCC[C@H]1C(=O)N[C@@H](Cc1ccc(O)cc1)C(=O)N[C@H](C(=O)N[C@@H](CC(C)C)C(=O)O)C(C)(C)C [Compound 21]	nM	4.3

----------
# test.name: In vitro stability in human plasma/PBS (1:2 v/v) at 37 °C
# Assay type: in vitro ADME
# condition.label: human blood plasma/PBS (1:2 v/v), pH 7.4, 24 h, read-out: % intact peptide in human plasma after the given incubation time
readout.kind: remaining at 24 h, 100 µM

structure.smiles	reported.measurement
CC(C)C[C@H](NC(=O)[C@@H](NC(=O)[C@H](Cc1ccc(O)cc1)NC(=O)[C@@H]1CCCN1C(=O)[C@H](CCCNC(=N)N)NC(=O)[C@@H](N)CCCNC(=N)NC(=O)NCCCCNC(=O)CCc1cn([C@@H]2O[C@H](CF)[C@@H](O)[C@H](O)[C@H]2O)nn1)C(C)(C)C)C(=O)O	< 1%
C#CCCC(=O)NCCCCNC(=O)NC(=N)NCCC[C@H](N)C(=O)N[C@@H](CCCNC(=N)N)C(=O)N1CCC[C@H]1C(=O)N[C@@H](Cc1ccc(O)cc1)C(=O)N[C@H](C(=O)N[C@@H](CC(C)C)C(=O)O)C(C)(C)C	< 1%
C#CCCC(=O)NCCCCNC(=O)NC(=N)NCCC[C@H](NC)C(=O)N[C@@H](CCCNC(=N)N)C(=O)N1CCC[C@H]1C(=O)N[C@@H](Cc1ccc(O)cc1)C(=O)N[C@H](C(=O)N[C@@H](CC(C)C)C(=O)O)C(C)(C)C	> 99%

// data source = paper PMC9440028
